Target: T1, murine IL-11 (mouse, UniProt P47873 22-199)
T1 sequence: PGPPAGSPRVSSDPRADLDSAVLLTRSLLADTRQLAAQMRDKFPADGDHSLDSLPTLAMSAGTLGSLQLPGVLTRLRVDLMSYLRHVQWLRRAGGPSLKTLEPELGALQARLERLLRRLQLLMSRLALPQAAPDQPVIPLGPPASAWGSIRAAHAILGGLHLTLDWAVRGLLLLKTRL
Assay: cell-based or functional assay
# RGA Efficacy (%) values compiled below
Your answer should be a plain number; it is taken to be in %.

Known results for binders:
[[record]]
binder = "TPP-26309 (antibody, V domains shown) VH: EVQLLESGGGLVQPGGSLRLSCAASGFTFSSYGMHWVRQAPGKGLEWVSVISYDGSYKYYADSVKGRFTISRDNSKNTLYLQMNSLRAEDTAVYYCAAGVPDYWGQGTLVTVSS VL: QSVLTQPPSASGTPGQRVTISCTGSSSNIGAGYDVHWYQQLPGTAPKLLIYSNNERPSGVPDRFSGSKSGTSASLAISGLRSEDEADYYCAAWDFSLNGPVFGGGTKLTVL"
measure_name = "RGA Efficacy (%)"
value = 92.2

[[record]]
binder = "TPP-26314 (antibody, V domains shown) VH: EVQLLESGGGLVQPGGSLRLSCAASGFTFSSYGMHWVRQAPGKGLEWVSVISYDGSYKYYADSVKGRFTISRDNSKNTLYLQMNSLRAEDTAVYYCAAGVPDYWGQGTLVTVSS VL: QSVLTQPPSASGTPGQRVTISCTGSSSNIGAGYDVHWYQQLPGTAPKLLIYSNNERPSGVPDRFSGSKSGTSASLAISGLRSEDEADYYCAAWDWSLNGPVFGGGTKLTVL"
measure_name = "RGA Efficacy (%)"
value = 94.4


Proceed to the following item.
Problem: Fill blank: measured RGA Efficacy (%) of the binder TPP-26298 (antibody, V domains shown) VH: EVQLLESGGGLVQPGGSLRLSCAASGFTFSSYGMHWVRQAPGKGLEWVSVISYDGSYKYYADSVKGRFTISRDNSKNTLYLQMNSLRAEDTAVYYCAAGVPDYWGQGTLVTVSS VL: QSVLTQPPSASGTPGQRVTISCLGSSSNIGAGYDVHWYQQLPGTAPKLLIYSNNERPSGVPDRFSGSKSGTSASLAISGLRSEDEADYYCAAWDDSLNGPVFGGGTKLTVL is ____.
Result: 96.3
